Experimental target: von Willebrand factor A1 domain (human) (Homo sapiens, UniProt P04275 SEQ:13-246)
Sequence (P04275 1238-1471 T1381A): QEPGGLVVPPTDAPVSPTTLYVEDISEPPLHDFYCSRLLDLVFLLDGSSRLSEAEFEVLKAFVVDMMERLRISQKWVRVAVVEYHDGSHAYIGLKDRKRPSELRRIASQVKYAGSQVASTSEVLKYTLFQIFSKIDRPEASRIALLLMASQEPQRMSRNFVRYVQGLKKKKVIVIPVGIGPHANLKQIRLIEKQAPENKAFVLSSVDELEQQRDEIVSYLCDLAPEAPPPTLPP
Protocol notes: filter; 100 nM protein
Procedure: All unique clones were assayed in a 3-point dot blot screen (no protein target control, 100 nM human vWF A1 domain (SEQ ID NO 5), or 100 nM rabbit vWF A1 domain (SEQ ID NO 6). The data are presented in the third and fourth columns of Table 14 below as the ratio of the fraction of the aptamer bound to the nitrocellulose in the presence of the target protein to the fraction of aptamer bound in the absence of the target protein.
Hi there, I'd appreciate the recorded binding signal for every entry that follows.

# get_value(readout='binding signal', item= AMX200.A7 (ssDNA) DNA: CTACCTACGATCTGACTAGCGGAATGAGAATGCTGATGGATTGTTCAGGTCTGCTGGCTGCTTACTCTCATGTAGTTCC )
0.97 ratio to no protein

# get_value(readout='binding signal', item= AMX202.H10 (ssDNA) DNA: CTACCTACGATCTGACTAGCGGAATGAGAAGGCTGGTGGATTGCTCAGGTCTGCTGGCTGCTTACTCTCATGTAGTTCC )
1.92 ratio to no protein

# get_value(readout='binding signal', item= AMX200.B8 (ssDNA) DNA: CTACCTACGATCTGACTAGCGGAATGAGAATGTTGGTGGATTGCTCAGGTCTGCTGGCTGCTTACTCTCATGTAGTTCC )
4.13 ratio to no protein

# get_value(readout='binding signal', item= AMX202.A3 (ssDNA) DNA: CTACCTACGATCTGACTAGCGGAATGAGAGCGCTGATGGATTGCTCAGGTCTGCTGGCTGCTTACTCTCATGTAGTTCC )
2.28 ratio to no protein

# get_value(readout='binding signal', item= AMX200.B9 (ssDNA) DNA: CTACCTACGATCTGACTAGCGGAATGAGAATGCTGATGGATTGCTCAGGTCTGCTGACTGCTTACTCTCATGTAGTTCC )
2.54 ratio to no protein

// provenance: patent US20060264369
